Molecular target: T1, unphosphorylated Aurora-A CAKD (Homo sapiens, UniProt O14965, C290A/C393A)
T1 construct: 10 μM Aurora-A kinase domain (phosphorylated or unphosphorylated C290A C393A 122–403); His (N, cleaved yes); made in house; host or cells: E. coli RIL, co-expressed with lambda phosphatase
T1 sequence (O14965 122-403 C290A/C393A): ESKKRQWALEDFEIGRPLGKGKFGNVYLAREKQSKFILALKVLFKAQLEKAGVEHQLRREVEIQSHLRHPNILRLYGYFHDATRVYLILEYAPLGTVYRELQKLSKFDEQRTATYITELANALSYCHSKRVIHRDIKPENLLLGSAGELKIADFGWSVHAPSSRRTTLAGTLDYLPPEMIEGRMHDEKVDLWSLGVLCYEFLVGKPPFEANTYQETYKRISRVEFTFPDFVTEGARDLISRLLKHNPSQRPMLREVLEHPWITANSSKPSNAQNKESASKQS
Assay: Fluorescence anisotropy competition with FAM-CEP192 501-533, unphosphorylated Aurora-A
Format: binding
Conditions: competition with 100 nM FAM-CEP192 501-533, 10 μM unphosphorylated Aurora-A CAKD, n = 3
For each record, write down the corresponding IC50.

Name the recorded IC50 of the molecule listed here: CEP192 468-533 F508D/I518D/F525D: CEP192 468-533 triple mutant (protein, UniProt Q8TEP8 468-533, looked up, variant F508D I518D F525D) PQSVVYQNEEGRWVTDLAYYTSFNSKQNLNVSLSDEMNEDDRSGSEAFDLDAQDEEEDNKEHQFIQ
> 10 µM

Name the recorded IC50 of the molecule listed here: CEP192 468-533 Y487A/F490A: CEP192 468-533 mutant, two F-pocket residues replaced with alanine (protein, left off: His6, N-terminal, cleaved | SUMO, N-terminal, cleaved, CEP192 468-533 mutant, two F-pocket residues replaced with alanine) PQSVVYQNEEGRWVTDLAYATSANSKQNLNVSLSDEMNEDFRSGSEAFDLIAQDEEEFNKEHQFIQ
6.9 µM

Name the recorded IC50 of the molecule listed here: CEP192 468-533 F490D/F508D/I518D: CEP192 468-533 variant replacing hydrophobic residues recognising two regions of N-lobe (protein, left off: His6, N-terminal, cleaved | SUMO, N-terminal, cleaved, CEP192 468-533 variant replacing hydrophobic residues recognising two regions of N-lobe) PQSVVYQNEEGRWVTDLAYYTSDNSKQNLNVSLSDEMNEDDRSGSEAFDLDAQDEEEFNKEHQFIQ
> 10 µM

Name the recorded IC50 of the molecule listed here: CEP192 468-533: recombinant human CEP192 aa 468–533, minimal binding region (protein, left off: His6, N-terminal, cleaved | SUMO, N-terminal, cleaved) PQSVVYQNEEGRWVTDLAYYTSFNSKQNLNVSLSDEMNEDFRSGSEAFDLIAQDEEEFNKEHQFIQ
1.42 µM
